Provenance of the data: patent EP1480941B1

Below is a list of entries, each paired with its recorded Ki value.
# target under test: HIV protease (Human immunodeficiency virus type 1 group M subtype B)
# assay protocol: Enzymatic (fluorometric FRET) assay for determining the inhibition constant (Ki)
# Type: biochemical
# test settings: EDANS/DABCYL substrate, equation of Henderson

compound	target under test	parameter measured	recorded result
Cc1ccc(S(=O)(=O)N(CC(C)C)[C@H](CCCCNC(=O)N[C@@H]2CCc3ccccc32)C(=O)O)cc1	HIV protease (Human immunodeficiency virus type 1 group M subtype B)	Ki	> 300 nM

Prompt: Quick check: Ki on HIV protease (Human immunodeficiency virus type 1 group M subtype B), item CCC(C)CN([C@H](CO)CCCCNC(=O)N(Cc1ccccc1)Cc1ccc2c(c1)OCO2)S(=O)(=O)c1ccc(N)cc1 (some centres unmarked) ?
Completion: 13 nM
